Every entry's value here was drawn from paper PMC4596688.

Molecular target: Full-length human CRM1 (HsCRM1) (human, UniProt O14980 1-1071)
Sequence (O14980 whole entry): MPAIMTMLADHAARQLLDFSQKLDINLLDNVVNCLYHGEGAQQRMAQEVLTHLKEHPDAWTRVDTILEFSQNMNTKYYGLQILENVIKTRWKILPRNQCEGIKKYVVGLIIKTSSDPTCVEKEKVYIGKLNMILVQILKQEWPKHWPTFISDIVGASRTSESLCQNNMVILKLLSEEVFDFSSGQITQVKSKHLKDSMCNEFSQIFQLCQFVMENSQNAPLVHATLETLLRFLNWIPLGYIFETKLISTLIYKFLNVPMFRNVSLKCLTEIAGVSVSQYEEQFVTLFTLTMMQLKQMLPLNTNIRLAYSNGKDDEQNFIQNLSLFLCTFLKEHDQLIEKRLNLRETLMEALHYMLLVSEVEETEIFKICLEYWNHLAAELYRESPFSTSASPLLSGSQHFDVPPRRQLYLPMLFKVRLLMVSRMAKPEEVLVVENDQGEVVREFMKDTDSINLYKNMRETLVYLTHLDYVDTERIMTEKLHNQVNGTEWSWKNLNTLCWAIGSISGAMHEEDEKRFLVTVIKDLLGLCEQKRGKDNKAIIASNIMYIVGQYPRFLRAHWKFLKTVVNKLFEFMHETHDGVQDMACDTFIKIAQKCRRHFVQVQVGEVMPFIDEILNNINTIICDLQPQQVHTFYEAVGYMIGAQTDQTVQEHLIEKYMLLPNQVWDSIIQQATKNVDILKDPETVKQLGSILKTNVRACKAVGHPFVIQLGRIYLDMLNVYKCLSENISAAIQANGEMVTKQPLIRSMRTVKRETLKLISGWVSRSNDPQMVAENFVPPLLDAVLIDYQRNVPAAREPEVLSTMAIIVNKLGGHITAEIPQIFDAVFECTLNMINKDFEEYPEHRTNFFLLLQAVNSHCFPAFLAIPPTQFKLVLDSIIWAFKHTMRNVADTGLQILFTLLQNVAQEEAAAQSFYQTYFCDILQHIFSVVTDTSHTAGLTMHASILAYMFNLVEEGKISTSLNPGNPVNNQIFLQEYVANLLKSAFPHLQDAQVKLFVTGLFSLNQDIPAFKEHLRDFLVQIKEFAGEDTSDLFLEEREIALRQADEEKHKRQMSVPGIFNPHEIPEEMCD
Test: MST; competition with FITC-PKI^NES
REPORTED_METRIC: Kd (µM)

A: MEELSQALASSFSVSQ [MBP-SNUPN^NES]
B: SNELALKLAGLDI [MBP-PKI^NES]
Consider entries A and B . Which has the numerically lower Kd? Give the label under which the chosen entry appears. B
(B: 0.036 µM, A: 12 µM)
